// Ki lookup, one value per entry
biological target: CDK7/cyclinH/MAT1 trimeric complex (Homo sapiens, UniProt P50613); experiment: In vitro CDK7 assay, potency of irreversible covalent inhibitors (kinact/KI), coupled PK/LDH ADP readout at 340 nm; details: CDK7 (20 nM enz.) (KI, μM), 20 nM enzyme
Sequence (P50613 whole entry): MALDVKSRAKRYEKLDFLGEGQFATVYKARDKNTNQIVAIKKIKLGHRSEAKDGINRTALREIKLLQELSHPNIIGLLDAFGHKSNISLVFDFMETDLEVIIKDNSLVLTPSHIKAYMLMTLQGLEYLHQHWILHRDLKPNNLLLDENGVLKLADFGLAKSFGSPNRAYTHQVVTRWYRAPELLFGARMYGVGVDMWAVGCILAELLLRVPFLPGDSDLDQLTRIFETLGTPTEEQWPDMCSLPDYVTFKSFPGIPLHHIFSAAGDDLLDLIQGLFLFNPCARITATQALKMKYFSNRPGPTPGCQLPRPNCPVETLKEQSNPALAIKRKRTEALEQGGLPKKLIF
Sequence (P51946 whole entry partner): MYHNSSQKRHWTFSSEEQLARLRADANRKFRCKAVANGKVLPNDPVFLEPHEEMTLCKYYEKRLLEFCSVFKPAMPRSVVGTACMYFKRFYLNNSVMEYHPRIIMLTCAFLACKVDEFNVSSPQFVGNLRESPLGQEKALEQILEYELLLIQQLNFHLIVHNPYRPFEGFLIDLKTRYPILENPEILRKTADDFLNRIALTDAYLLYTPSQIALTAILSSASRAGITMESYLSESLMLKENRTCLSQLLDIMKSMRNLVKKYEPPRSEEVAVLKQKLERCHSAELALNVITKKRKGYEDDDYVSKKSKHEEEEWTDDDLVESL
Sequence (P51948 whole entry partner): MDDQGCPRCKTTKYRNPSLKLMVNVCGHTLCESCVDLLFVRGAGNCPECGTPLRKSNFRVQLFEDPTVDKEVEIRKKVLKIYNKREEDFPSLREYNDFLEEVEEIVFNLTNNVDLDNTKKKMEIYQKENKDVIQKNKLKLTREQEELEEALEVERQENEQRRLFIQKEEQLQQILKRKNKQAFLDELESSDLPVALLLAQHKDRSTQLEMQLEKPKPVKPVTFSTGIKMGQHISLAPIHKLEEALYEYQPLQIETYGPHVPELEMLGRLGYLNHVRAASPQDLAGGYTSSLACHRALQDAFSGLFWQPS
Give your result in µM as a bare value.

Record CC#CC(=O)N1CC(N2CCC(c3cc4c(c(C#N)n3)O[C@@H](C)c3c(N5CCOCC5)ccnc3N4)CC2)C1 (single isomer, unassigned) [Compound 520] ; system CDK7/cyclinH/MAT1 trimeric complex (Homo sapiens, UniProt P50613); Ki = 0.00977

Record CC#CC(=O)N1CC(N2CCC(c3cc4c(c(C)n3)OCc3c(N5CCOCC5)ccnc3N4)N(C)CC2)C1 (stereo not drawn) ; system CDK7/cyclinH/MAT1 trimeric complex (Homo sapiens, UniProt P50613); Ki = 0.113

Record C=CC(=O)N1CC(N2CC[C@@H](c3cc4c(c(C)n3)O[C@@H](C)c3c(N5CCOCC5)ccnc3N4)C2)C1 (single isomer, unassigned) [Compound 392] ; system CDK7/cyclinH/MAT1 trimeric complex (Homo sapiens, UniProt P50613); Ki = 0.0655

Record C=CC(=O)N1CC[C@@H](N2CC(c3cc4c(c(C)n3)OCc3c(N5CCOCC5)ccnc3N4)C2)[C@H](F)C1 (mixture of isomers) ; system CDK7/cyclinH/MAT1 trimeric complex (Homo sapiens, UniProt P50613); Ki = 0.114

Record CC#CC(=O)N1CCC(N2CC(c3cc4c(c(C5CC5)n3)OCc3c(N5CCOCC5)ccnc3N4)C2)CC1 [Compound 335] ; system CDK7/cyclinH/MAT1 trimeric complex (Homo sapiens, UniProt P50613); Ki = 0.0383

Record Cc1nc(C2CN(C3CCN(C(=O)/C=C/CN(C)C)CC3)C2)cc2c1OCc1c(-c3cnn(C)c3)ccnc1N2 ; system CDK7/cyclinH/MAT1 trimeric complex (Homo sapiens, UniProt P50613); Ki = 0.0823

---

target: CDK7/cyclinH/MAT1 trimeric complex (Homo sapiens, UniProt P50613); test: In vitro CDK7 assay, potency of irreversible covalent inhibitors (kinact/KI), coupled PK/LDH ADP readout at 340 nm; details: CDK7 (20 nM enz.) (KI, μM), 20 nM enzyme
// Ki lookup, one value per entry
Give your result in µM as a bare value.

Solved entries:
compound="C=CC(=O)N1CC(N2CC(c3cc4c(cn3)O[C@@H](C)c3c(-c5cnn(C)c5)ccnc3N4)C2)C1 (single isomer, unassigned)" unit_label=µM experimental_value=2.63
compound=CC#CC(=O)N1CC(N2CC(c3cc4c(c(CCC)n3)OCc3c(N5CCOCC5)ccnc3N4)C2)C1 unit_label=µM experimental_value=0.103
compound="C#Cc1cc2c(cc1C1CCN(C3CN(C(=O)C=C)C3)CC1)Nc1nccc(N3CCOCC3)c1[C@@H](C)O2 (single isomer, unassigned)" unit_label=µM experimental_value=7.29
compound=C=CC(=O)N1CCC(c2nc(C)c(-c3cc(C)c4c(c3)Nc3nccc(C5CCOCC5)c3CO4)c(C)n2)CC1 unit_label=µM experimental_value=0.293
compound="C=CC(=O)N1CCC(N2CC(c3ccc4c(c3)Nc3nccc(C5CCOCC5)c3CO4)C2)CC1 [Compound 96]" unit_label=µM experimental_value=0.184

In plain terms, C=CC(=O)N1CC(N2CCC(c3cc4c(c(C)n3)O[C@H](C)c3c(N5CCOCC5)ccnc3N4)CC2)C1 (single isomer, unassigned) has a documented Ki of 0.0323

---

// melting point lookup, one value per entry

Solved entries:
compound="C=CC(=O)N1CC(N2CCC(c3cc4c(cn3)OCc3c(N5CCOCC5)ccnc3N4)CC2)C1 [Compound 83]" experimental_value="238.4 °C"
compound="C=CC(=O)N1CC(N2CCC(c3cc4c(c(C#N)n3)OCc3c(N5CCOCC5)ccnc3N4)CC2)C1 [Compound 306]" experimental_value="256.7 °C"
compound="C#Cc1cc(C2CCN(C3CN(C(=O)C=C)C3)CC2)cc2c1O[C@H](C)c1c(N3CCOCC3)ccnc1N2 (single isomer, unassigned) [Compound 268]" experimental_value="236.7 °C"
compound="C=C(C(=O)N1CC(N2CCC(c3cc4c(c(C)n3)O[C@@H](C)c3c(N5CCOCC5)ccnc3N4)CC2)C1)n1cccn1 (single isomer, unassigned) [Compound 523]" experimental_value="148 °C"
compound="C=CC(=O)N1CC(N2CCC(c3cc4c(c(C)n3)OCc3c(N5CCOCC5)ccnc3N4)CC2)C1 [Compound 173]" experimental_value="236.9 °C"

In plain terms, C=CC(=O)N1CC(N2CCC(c3cc4c(c(-c5ncc[nH]5)n3)OCc3c(N5CCOCC5)ccnc3N4)CC2)C1 [Compound 378] has a documented melting point of 195.5 °C

---

// kinact/KI lookup, one value per entry
molecular target: CDK7/cyclinH/MAT1 trimeric complex (Homo sapiens, UniProt P50613); assay: In vitro CDK7 assay, potency of irreversible covalent inhibitors (kinact/KI), coupled PK/LDH ADP readout at 340 nm; details: read-out: CDK7 (20 nM enz.) (kinact/KI, M^−1*s^−1), 20 nM enzyme

Solved entries:
compound=CC#CC(=O)N1CCC(n2cc(-c3cc4c(c(C)n3)OCc3c(N5CCOCC5)ccnc3N4)cn2)CC1 experimental_value="78.8 M⁻¹ s⁻¹"
compound="C=CC(=O)N1CC(N2CCC(c3cc4c(c(C)n3)O[C@@H](C)c3c(C5CCOCC5)ccnc3N4)CC2)C1 (single isomer, unassigned) [Compound 415]" experimental_value="33.5 M⁻¹ s⁻¹"

Then there is this compound:
In plain terms, C=CC(=O)N1CCC(N2CCC(c3cc4c(c(C)n3)O[C@@H](C)c3c(N5CCOCC5)ccnc3N4)CC2)CC1 (single isomer, unassigned) has a documented kinact/KI of 31.3 M⁻¹ s⁻¹

---

// Ki lookup, one value per entry
biological target: CDK7/cyclinH/MAT1 trimeric complex (Homo sapiens); assay: In vitro CDK7 assay, potency of irreversible covalent inhibitors (kinact/KI), coupled PK/LDH ADP readout at 340 nm; details: CDK7 (20 nM enz.) (KI, μM), 20 nM enzyme
Give your result in µM as a bare value.

Solved entries:
compound="CC#CC(=O)N1CC(N2CCC(c3cc4c(c(C)n3)O[C@@H](C)c3c(N5CCOCC5)ccnc3N4)CC2)C1 (single isomer, unassigned)" experimental_value=17.1
compound=C=CC(=O)N1CCC(N2CCC(c3ccc4c(c3)Nc3nccc(N5CCS(=O)(=NC)CC5)c3CO4)CC2)CC1 experimental_value=0.48
compound=C=CC(=O)N1CC(N2CC(c3cc4c(c(CCC)n3)OCc3c(N5CCOCC5)ccnc3N4)C2)C1 experimental_value=0.025
compound="C=CC(=O)N1CC[C@H](N2CC(c3cc4c(c(C)n3)OCc3c(-c5cnn(C)c5)ccnc3N4)C2)C1 (single isomer, unassigned)" experimental_value=0.449

In plain terms, C=C(C(=O)N1CC[C@@H](N2CCC(c3cc4c(c(C)n3)OCc3c(-c5cnn(C)c5)ccnc3N4)CC2)C1)n1cccn1 (single isomer, unassigned) has a documented Ki of 0.046

In plain terms, C=CC(=O)N1CCC(N2CC(c3cc4c(c(C(F)(F)F)n3)OCc3c(N5CCOCC5)ccnc3N4)C2)CC1 [Compound 359] has a documented Ki of 0.028

---

target: CDK7/cyclinH/MAT1 trimeric complex (Homo sapiens); assay: In vitro CDK7 assay, potency of irreversible covalent inhibitors (kinact/KI), coupled PK/LDH ADP readout at 340 nm; conditions: potency of irreversible covalent inhibitors; 1 mM ATP, room temperature; averaged values over all measurements
MEASURE_NAME: CDK7 (kinact/KI, M^−1*s^−1) (M⁻¹ s⁻¹)
Give your result in M⁻¹ s⁻¹ as a bare value.

Solved entries:
compound="C=CC(=O)N1CC(N2CCC(c3ccc4c(c3)Nc3nccc(C5CCOCC5)c3CO4)CC2)C1 [compound 34]" unit_label="M⁻¹ s⁻¹" experimental_value=2083.98
compound=C=CC(=O)N1CC(N2CCC(c3ccc4c(c3)Nc3nccc(N5CCS(=O)(=O)CC5)c3CO4)CC2)C1 unit_label="M⁻¹ s⁻¹" experimental_value=710
compound="C=CC(=O)N1CC(N2CCC(c3ccc4c(c3)Nc3nccc(C5CCOCC5)c3CO4)CC2)C1 [compound 15]" unit_label="M⁻¹ s⁻¹" experimental_value=320.6
compound="C=CC(=O)N1CC(N2CCC(c3ccc4c(c3)Nc3nccc(N5CCOCC5)c3CO4)CC2)C1 [compound 7]" unit_label="M⁻¹ s⁻¹" experimental_value=1065.34

In plain terms, C=CC(=O)N1CC(N2CCC(c3ccc4c(c3)Nc3nccc(N5CCOCC5)c3CO4)CC2)C1 [Compound 4] has a documented CDK7 (kinact/KI, M^−1*s^−1) of 3147.06

In plain terms, C=CC(=O)N1CC(N2CCC(c3ccc4c(c3)Nc3nccc(C5CCOCC5)c3CO4)CC2)C1 [Compound 3] has a documented CDK7 (kinact/KI, M^−1*s^−1) of 2787.5
